Origin of measurements: patent US8222416B2

# Target of assay: Recombinant human liver GK1 (GST-GK) (Homo sapiens)
# Construct: made in house; host or cells: E. coli
# Sequence (P35557 1-466 isoform P35557-2): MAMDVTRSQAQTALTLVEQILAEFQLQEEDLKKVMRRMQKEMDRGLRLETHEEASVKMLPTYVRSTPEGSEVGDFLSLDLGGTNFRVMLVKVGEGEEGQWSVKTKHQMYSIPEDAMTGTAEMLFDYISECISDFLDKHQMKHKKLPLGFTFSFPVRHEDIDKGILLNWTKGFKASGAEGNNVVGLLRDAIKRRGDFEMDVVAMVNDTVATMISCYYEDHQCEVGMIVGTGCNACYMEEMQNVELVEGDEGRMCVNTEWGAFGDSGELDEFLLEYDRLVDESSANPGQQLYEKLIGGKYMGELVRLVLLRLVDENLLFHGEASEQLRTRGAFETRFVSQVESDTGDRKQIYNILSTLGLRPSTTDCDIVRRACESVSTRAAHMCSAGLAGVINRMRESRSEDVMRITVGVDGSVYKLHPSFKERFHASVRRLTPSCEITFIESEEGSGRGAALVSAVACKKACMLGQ
# Protocol details: In vitro glucokinase activity assay (G6PDH-coupled, NADH, OD340)
# Type: biochemical
# Assay context: concentration of activator that produced a 50% increase in the activity of GK; 5 mM D-glucose, 30° C.
Decide using SC1.5: a value greater than or equal to 2 µM is 1, a smaller one is -1.

- CS(=O)(=O)c1ccc(C(CC2CCCC2)c2cc3cc(F)cnc3[nH]2)cc1 (stereo not shown): -1
- CC(C)(O)c1ccc(C(CC2CCCC2)c2cc3cccnc3[nH]2)cc1F (stereo not shown): -1
- CS(=O)(=O)c1ccc(C(CC2CCCC2)c2cc3cccnc3[nH]2)cc1 (stereo not shown): -1
- CS(=O)(=O)c1ccc(/C(=C\C2CCOCC2)c2cc3cc(F)cnc3[nH]2)cc1: -1
- CN(C)CCS(=O)(=O)c1ccc(C(CC2CCCC2)c2cc3cccnc3[nH]2)cc1 (stereo not shown): -1
- CS(=O)(=O)c1ccc(C(CC2CCCC2)c2cc3cc(C(O)CO)cnc3[nH]2)cc1 (stereo not shown): 1
- CC(O)c1ccc(C(CC2CCCC2)c2cc3cccnc3[nH]2)cc1 (stereo not shown): 1
- CS(=O)(=O)c1ccc([C@@H](CC2CCCC2)c2cc3cc(F)cnc3[nH]2)cc1 (single isomer, unassigned): -1
- CS(=O)(=O)c1ccc(C(CC2CCCC2)c2cc3cc(CCCO)cnc3[nH]2)cc1 (stereo not shown): 1
- CC(C)(O)c1ccc(C(CC2CCCC2)c2cc3cccnc3[nH]2)c(F)c1 (stereo not shown): 1
- CS(=O)(=O)c1ccc(C(CC2CCCC2)c2cc3cc(CC#N)cnc3[nH]2)cc1 (stereo not shown): 1
- CC(=O)c1ccc(C(CC2CCCC2)c2cc3cccnc3[nH]2)cc1 (stereo not shown): 1
- COc1cnc2[nH]c(C(CC3CCCO3)c3ccc(S(C)(=O)=O)cc3)cc2c1 (single isomer, unassigned) [Example 22]: 1

###

log10 of SC1.5 values by entry
# Target of assay: Recombinant human liver GK1 (GST-GK) (Homo sapiens, UniProt P35557)
# Construct: made in house; host or cells: E. coli
# Sequence (P35557 1-466 isoform P35557-2): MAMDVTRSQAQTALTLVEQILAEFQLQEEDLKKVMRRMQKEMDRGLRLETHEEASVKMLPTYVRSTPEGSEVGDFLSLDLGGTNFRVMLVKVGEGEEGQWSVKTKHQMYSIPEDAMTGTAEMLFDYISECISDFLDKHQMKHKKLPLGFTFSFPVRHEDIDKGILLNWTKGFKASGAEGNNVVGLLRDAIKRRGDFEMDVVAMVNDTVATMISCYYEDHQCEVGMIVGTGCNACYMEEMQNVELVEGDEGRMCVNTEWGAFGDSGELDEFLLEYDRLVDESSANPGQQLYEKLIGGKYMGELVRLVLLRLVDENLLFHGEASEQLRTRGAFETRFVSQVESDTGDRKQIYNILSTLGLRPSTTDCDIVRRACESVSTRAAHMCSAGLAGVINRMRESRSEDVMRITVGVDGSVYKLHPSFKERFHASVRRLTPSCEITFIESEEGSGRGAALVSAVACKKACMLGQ
# Protocol details: In vitro glucokinase activity assay (G6PDH-coupled, NADH, OD340)
# Format: biochemical
# Assay context: concentration of activator that produced a 50% increase in the activity of GK; 5 mM D-glucose, 30° C.
Measurement kind: log10 of SC1.5 (log10 of the value in µM)

• CS(=O)(=O)Nc1ccc(C(CC2CCCC2)c2cc3cccnc3[nH]2)cc1 (stereo not shown) = 0.40
• FC(F)(F)c1ccc(C(CC2CCOCC2)c2cc3cccnc3[nH]2)cc1 (stereo not shown) = -0.05
• CC(C)(CO)Oc1cnc2[nH]c([C@H](CC3CCCC3)c3ccc(S(C)(=O)=O)cc3)cc2c1 (single isomer, unassigned) = 0.04
• CN(C)c1ccc(C(CC2CCCC2)c2cc3cccnc3[nH]2)cc1 (stereo not shown) = 0.45
• COc1cnc2[nH]c(C(O)(CC3CCC3)c3ccc(S(C)(=O)=O)c(C(F)(F)F)c3)cc2c1 (stereo not shown) = 1.12
• CS(=O)(=O)c1ccc(C(CC2CCCC2)c2cc3cc(CO)cnc3[nH]2)cc1 (stereo not shown) = 0.53
• CC(C)(CO)Oc1cnc2[nH]c(C(CC3CCCC3)c3ccc(S(C)(=O)=O)cc3)cc2c1 (stereo not shown) = 0.45
• CCOC(CC1CCCC1)(c1ccc(S(C)(=O)=O)cc1)c1cc2cccnc2[nH]1 (single isomer, unassigned) = 1.04
• CS(=O)(=O)c1ccc(/C(=C\C2CCCO2)c2cc3cccnc3[nH]2)cc1 (stereo not shown) = -1.09
• COc1cnc2[nH]c(/C(=C/C3CCCO3)c3ccc(S(C)(=O)=O)cc3)cc2c1 (stereo not shown) = -0.09
• CC(C)(O)c1ccc(C(CC2CCCC2)c2cc3cc(C(=O)O)cnc3[nH]2)cc1F (stereo not shown) = 1.35
• COCCCc1cnc2[nH]c(C(CC3CCCC3)c3ccc(S(C)(=O)=O)cc3)cc2c1 (stereo not shown) = 0.63
• CC(C)CC(c1ccc(C(C)(C)O)c(F)c1)c1cc2cc(F)cnc2[nH]1 (stereo not shown) = -0.43
• COc1cnc2[nH]c([C@H](CC3CCOCC3)c3ccc(C(F)(F)F)cc3)cc2c1 (single isomer, unassigned) = -0.02
• COc1cnc2[nH]c(C(CC3CCOCC3)c3ccc(S(C)(=O)=O)cc3)cc2c1 (stereo not shown) = 0.28
• CS(=O)(=O)c1ccc(C(CC2CCCC2)c2cc3cc(C#N)cnc3[nH]2)cc1 (stereo not shown) = -0.43
